Tested on: NCI-H522
EXPERIMENTAL_DETAILS: NCI tumour cell line growth inhibition, 48 h
Active and inactive are the calls of the source. Rule as the data show it: active = GI50 up to about 1.1 µM and inactive = higher.
Outcome codes: label 1 for active, label 0 for inactive

* CC1(C)C(c2ccccc2)=[N+]([O-])C(C)(C)N1O | label 0
* O=C1/C(=C\c2ccccc2)C(NC2CCCCC2)c2ccccc21 (stereo not drawn) | label 1
* O=C(/C=C/c1ccccc1F)c1ccc(Cl)c(Cl)c1 | label 0

---

Tested on: OVCAR-5
EXPERIMENTAL_DETAILS: NCI tumour cell line growth inhibition, 48 h
The source made the active and inactive calls. Rule as the data show it: active = GI50 up to about 1.1 µM and inactive = higher.
ASSAY_METRIC: GI50

- CC1=C2C(=O)c3ccccc3C2=C(C)S(=O)(=O)O1: > 10 µM (inactive)
- O=C(NNC(=O)c1ccncc1)C(=O)Nc1cc(Cl)c(Cl)cc1Cl: > 100 µM (inactive)
- c1ccc(C2=NN(c3ccccc3)C3(S2)SC(c2ccccc2)(c2ccccc2)c2ccccc23)cc1 (centres undefined): > 100 µM (inactive)
- CC(C)(C)c1cc(CCC(=O)Nc2ccc(Cl)cc2Cl)nc(N)n1: > 100 µM (inactive)

---

System: SF-295
EXPERIMENTAL_DETAILS: NCI tumour cell line growth inhibition, 48 h
Calls of active or inactive are those of the source. Cut-off read from the data, not from the text of the source: active = GI50 up to about 1.1 µM and inactive = higher.
ASSAY_METRIC: GI50

• COc1ccccc1NC(=O)C1=C(C)NC(C)=C(C(=O)Nc2ccccc2OC)C1/C=C/c1ccccc1 = > 100 µM (inactive)
• Cc1ccc(S(=O)(=O)NC(=O)NC(CO)C(=O)O)cc1 (configuration not stated) = > 100 µM (inactive)
• COc1ccc(-c2nc(-c3cnccn3)n(C/C=C/c3ccccc3)n2)cc1 = 32.1 µM (inactive)
• O=C(c1ccccc1)C1C(c2ccccc2)N1S(=O)(=O)c1ccccc1 (configuration not stated) = > 100 µM (inactive)
• N#Cc1c(-c2ccccc2)c(C#N)c(=S)n(C2OC(CO)C(O)C(O)C2O)c1N (configuration not stated) = > 100 µM (inactive)
• COc1cc(C2c3cc4c(cc3[C@@H](Nc3ccc([N+](=O)[O-])cc3)C3COC(=O)[C@H]23)OCO4)cc(OC)c1O (some centres not stated) = 0.466 µM (active)
• CSC[C@H](NC(=O)COc1cccc2cnccc12)C(=O)NC(Cc1ccccc1)C(O)C(=O)N1CSC[C@H]1C(=O)NC(C)(C)C (some centres not stated) = 60.4 µM (inactive)
• COc1ccc(OC)c(NC(=O)C(=O)NNC(=O)c2sc(NNC(C)=O)nc2C)c1 = 32 µM (inactive)
• N#Cc1ccccc1NC(=O)C(=O)C(C(=O)c1ccccc1F)C1OC(=O)c2ccccc21 (configuration not stated) = 55.1 µM (inactive)
• CC1(C)[N+]([O-])=[N+]([O-])C1(Br)c1ccccc1 (configuration not stated) = 49.2 µM (inactive)
• O=C(CC1C(=O)Nc2ccccc2[S+]1[O-])Nc1ccc(Cl)cc1 (configuration not stated) = > 100 µM (inactive)
• CC(=O)NNc1nc(C)c(C(=O)/C=C/c2ccccc2Cl)s1 = > 100 µM (inactive)
• O=C(/C=C/c1ccccc1F)c1ccc(Cl)c(Cl)c1 = 39.3 µM (inactive)
• CC(C)C(C(=O)O)N1C(=O)c2ccccc2C1=O (configuration not stated) = > 100 µM (inactive)
• O=C1c2ccccc2C(=O)c2c(NCCCNCCO)ccc(NCCCNCCO)c21 = 7.33 µM (inactive)
• Cc1ccccc1Nc1nc2ccccc2nc1NS(=O)(=O)c1ccccc1 = 67.1 µM (inactive)
• CCc1nc(N)nc(N)c1-c1ccc(N2CCOCC2)c(N=[N+]=[N-])c1 = 63 µM (inactive)
• COc1cc(OC(=O)c2c(O)cc(O)c(O)c2C)cc(C)c1C(=O)Oc1cc(C)c(C(=O)O)c(O)c1 = > 100 µM (inactive)
• O=C(NNC(=O)c1ccncc1)C(=O)Nc1cc(Cl)c(Cl)cc1Cl = > 100 µM (inactive)
• COC(=O)C1Cc2c(OC)ccc(OC)c2CC(C(=O)OC)C1=O (configuration not stated) = > 100 µM (inactive)
• CC1(C)S[C@@H]2[C@H](NC(=O)/C=C/c3ccccc3)C(=O)N2[C@H]1C(=O)O = > 100 µM (inactive)
• O=C1CC(c2ccc([N+](=O)[O-])cc2)C2(C(=O)NC(=S)NC2=O)C(c2ccc([N+](=O)[O-])cc2)C1 (configuration not stated) = 25.5 µM (inactive)
• O=C1c2ccccc2C2=Nc3ccncc3CN12 = > 100 µM (inactive)
• O=c1oc2ccc([N+](=O)[O-])cc2c(Nc2ccc3c(c2)Sc2ccccc2O3)c1[N+](=O)[O-] = 38.2 µM (inactive)
• O=C1CC(c2ccc[nH]2)=NN1c1ccccc1 = > 100 µM (inactive)
• Cc1ccccc1-n1c(C)nc2c1C(=O)c1ccccc1C2=O = 67 µM (inactive)
• COC1OC(Cn2cc([N+](=O)[O-])nc2C)C(O)C(O)C1O (configuration not stated) = > 100 µM (inactive)
• CCOC(=O)C1=C(C)NC(C)=C(C(=O)OCCNC(=O)c2ccc(N=[N+]=[N-])cc2)C1c1ccccc1C(F)(F)F (configuration not stated) = 8.61 µM (inactive)
• COC(=O)NC(=O)c1cn(C2OC(CO)C(O)C2O)c(=O)[nH]c1=O (configuration not stated) = > 100 µM (inactive)
• NC(CCCCN/C=C1/N=C(c2ccccc2)OC1=O)C(=O)O (configuration not stated) = > 100 µM (inactive)
• Clc1ccc(OCc2nnc(CCCCCCCCc3nnc(COc4ccc(Cl)cc4Cl)o3)o2)c(Cl)c1 = 85.1 µM (inactive)
• COc1cccc(/C=C/c2ccnc3ccccc23)c1OC = > 10 µM (inactive)
• O=C(O)c1cc(/C=C/c2cc(O)ccc2O)ccc1O = > 10 µM (inactive)
• N#Cc1[nH]c(=O)n(-c2ccc([N+](=O)[O-])cc2)c1N = > 10 µM (inactive)
• CCCCCCCCCCCCOC(=N)N1CCOCC1 = 17 µM (inactive)
• Cc1ccc(NC(=O)CC2SC(Nc3cccc(Cl)c3C)=NC2=O)cc1 (configuration not stated) = 39.6 µM (inactive)
• CC1=CC2=C(C(N)=O)C(=O)OC2(C)C(c2ccccc2)C1 (configuration not stated) = > 100 µM (inactive)
• CC1=NN(c2nc(N)nc(C/C(N)=N/O)n2)C(C)(C)C1 = > 100 µM (inactive)
• CCCC(=O)OC(OC(=O)CCC)c1ccc([N+](=O)[O-])o1 = > 100 µM (inactive)
• O=C(O)C1CCC(=O)N1C(=O)COc1cc(Cl)c(Cl)cc1Cl (configuration not stated) = > 100 µM (inactive)
• Fc1cc(C2=Nn3c(CNc4ccc(Cl)cc4)nnc3S/C2=C\c2ccc(-c3ccc(Cl)cc3)o2)c(Cl)cc1Cl = 22.3 µM (inactive)
• N=C(N)SCCCN = 21.6 µM (inactive)
